The values you see were collected from ChEMBL document CHEMBL1139907.

System: Hepatitis C virus
MEASUREMENT DESCRIPTION: Antiviral activity against HCV in Huh-5-2 cells by replicon assay
Type: functional, organism-based, Hepacivirus hominis
PARAMETER MEASURED: pEC50
The meaning of pEC50 here: minus log10 of the concentration in molar units.

Example results:
Briefly, pEC50 measured for CC(=O)N1CCN(c2ccc(N3CCCC3=O)cc2COc2ccc(-c3nc4cc(C(=O)O)ccc4n3C3CCCCC3)c(F)c2)CC1 : 6.02

Briefly, pEC50 measured for CN(C)C(=O)c1ccc(N2CCOCC2)c(COc2ccc(-c3nc4cc(C(=O)O)ccc4n3C3CCCCC3)c(F)c2)c1 : 6.36

Briefly, pEC50 measured for COCCN(C)c1ccc(N2CCCC2=O)cc1COc1ccc(-c2nc3cc(C(=O)O)ccc3n2C2CCCCC2)c(F)c1 : 5.89

Briefly, pEC50 measured for COc1ccc(N2CCCC2=O)cc1COc1ccc(-c2nc3cc(C(=O)O)ccc3n2C2CCCCC2)c(F)c1 : 5.85

***
Briefly, pEC50 measured for O=C(O)c1ccc2c(c1)nc(-c1ccc(OCc3cc(Cl)ccc3N3CCOCC3)cc1F)n2C1CCCCC1 : 5.92

Briefly, pEC50 measured for CC(=O)N(C)c1ccc(N2CCOCC2)c(COc2ccc(-c3nc4cc(C(=O)O)ccc4n3C3CCCCC3)c(F)c2)c1 : 6.43

Briefly, pEC50 measured for O=C(O)c1ccc2c(c1)nc(-c1ccc(OCc3cc(N4CCCC4=O)ccc3N3CCC(C(=O)O)CC3)cc1F)n2C1CCCCC1 : 5.46

Briefly, pEC50 measured for O=C(O)c1ccc2c(c1)nc(-c1ccc(OCc3cc(N4CCCC4=O)ccc3N3CCOCC3)cc1F)n2C1CCCCC1 : 6.51

Briefly, pEC50 measured for O=C(O)c1ccc2c(c1)nc(-c1ccc(OCc3cc(N4CCCC4=O)ccc3N3CCC(O)CC3)cc1F)n2C1CCCCC1 : 5.85

---

MEASUREMENT DESCRIPTION: Inhibition of HCV NS5B polymerase
Parameters: species or system Hepacivirus hominis
PARAMETER MEASURED: pIC50
The meaning of pIC50 here: minus log10 of the concentration in molar units.

Briefly, pIC50 measured for CN(C)C(=O)c1ccc(N2CCOCC2)c(COc2ccc(-c3nc4cc(C(=O)O)ccc4n3C3CCCCC3)c(F)c2)c1 : 7.17

***
Briefly, pIC50 measured for O=C(O)c1ccc2c(c1)nc(-c1ccc(OCc3cc(N4CCCC4=O)ccc3N3CCCCC3)cc1F)n2C1CCCCC1 : 6.82

Briefly, pIC50 measured for CC(=O)Nc1ccc(N2CCOCC2)c(COc2ccc(-c3nc4cc(C(=O)O)ccc4n3C3CCCCC3)c(F)c2)c1 : 7.15

Briefly, pIC50 measured for COCC(=O)N(C)c1ccc(N2CCOCC2)c(COc2ccc(-c3nc4cc(C(=O)O)ccc4n3C3CCCCC3)c(F)c2)c1 : 7.00

---

Tested on: Hepatitis C virus
MEASUREMENT DESCRIPTION: Antiviral activity against HCV in Huh-5-2 cells by replicon assay
Format: functional, organism-based, Hepacivirus hominis
PARAMETER MEASURED: pEC50
The meaning of pEC50 here: minus log10 of the concentration in molar units.

Example results:
Briefly, pEC50 measured for COCC(=O)N(C)c1ccc(N2CCOCC2)c(COc2ccc(-c3nc4cc(C(=O)O)ccc4n3C3CCCCC3)c(F)c2)c1 : 5.92

Briefly, pEC50 measured for CC(C)NC(=O)c1ccc(N2CCOCC2)c(COc2ccc(-c3nc4cc(C(=O)O)ccc4n3C3CCCCC3)c(F)c2)c1 : 6.42

Briefly, pEC50 measured for O=C(O)c1ccc2c(c1)nc(-c1ccc(OCc3ccccc3N3CCOCC3)cc1F)n2C1CCCCC1 : 6.00

***
Briefly, pEC50 measured for O=C(O)c1ccc2c(c1)nc(-c1ccc(OCc3cc(N4CCCC4=O)ccc3N3CCCCC3)cc1F)n2C1CCCCC1 : 6.10

Briefly, pEC50 measured for Cn1c(-c2ccc(OCc3cc(N4CCCC4=O)ccc3N3CCOCC3)cc2)c(C2CCCCC2)c2ccc(C(=O)O)cc21 : 7.28

Briefly, pEC50 measured for CC(=O)N(c1ccc(N2CCOCC2)c(COc2ccc(-c3nc4cc(C(=O)O)ccc4n3C3CCCCC3)c(F)c2)c1)C(C)C : 6.57
